The reported measurements were obtained from patent US8980911B2.

# IC50 listing for each entry below
target: JAK3 (Homo sapiens, UniProt P52333); construct: All enzymes only contain the catalytic domain; His (N); test: In vitro enzyme assay (cell-free HTRF kinase assay), JAK3; conditions: catalytic domain, His-tag; ATP 3 μM, SRCtide 100 nM, reaction 30 min
Sequence (P52333 822-1111 limits assumed): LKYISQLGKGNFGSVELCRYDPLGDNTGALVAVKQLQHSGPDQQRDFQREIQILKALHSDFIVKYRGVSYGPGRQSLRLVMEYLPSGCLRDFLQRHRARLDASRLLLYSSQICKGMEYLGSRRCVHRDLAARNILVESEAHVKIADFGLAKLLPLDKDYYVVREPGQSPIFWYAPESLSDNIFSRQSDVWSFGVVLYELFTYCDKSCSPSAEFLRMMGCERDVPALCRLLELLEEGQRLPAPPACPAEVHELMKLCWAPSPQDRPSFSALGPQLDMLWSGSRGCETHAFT

For orientation, consider the following solved cases.
>>> measurement("CCOC(=O)[C@H](C)NC(=O)c1cc(Cl)c(C(=O)n2ccc3c(NC(=O)C4CC4)nccc32)c(Cl)c1")
"< 1000 nM"
>>> measurement("O=C(c1c(F)cccc1Cl)c1c[nH]c2c(NC(=O)C3CC3)nccc12")
"< 100 nM"
>>> measurement("O=C(NCCn1cccc1)c1cc(Cl)c(C(=O)n2ccc3c(NC(=O)C4CC4)nccc32)c(Cl)c1")
"< 500 nM"
>>> measurement("O=C(c1c(F)cccc1Cl)c1c[nH]c2cnc(NC(=O)C3CC3)cc12")
"< 500 nM"
>>> measurement("O=C(c1c(Cl)cccc1Cl)c1c[nH]c2cnc(NC(=O)C3CC3)cc12")
"< 1000 nM"

Exercise: Reported IC50, molecule `CCNC(=O)Nc1cc(Cl)c(C(=O)n2ccc3c(NC(=O)C4CC4)nccc32)c(Cl)c1` : ____
Solution: < 500 nM

Exercise: And for `CC(=O)Nc1nccc2c(C(=O)c3c(Cl)cc(C(=O)NCCN4CCCCC4)cc3Cl)c[nH]c12` ?
Solution: < 1000 nM

Exercise: Now try `O=C(NC1CC1)c1cc(Cl)c(C(=O)c2c[nH]c3c(NC(=O)C4CC4)nccc23)c(Cl)c1` .
Solution: < 500 nM
